System: SNB-75 CNS
Assay: NCI-60 one-dose screen, 48 h (100 = growth as untreated, 0 = no growth, -100 = all killed)
Settings: 10 µM unless noted
Protocol: Growth inhibition of the SNB-75 human tumor cell line is measured as a screen for anti-cancer activity. Cells are grown in 96 well plates and exposed to the test compound for 48 hours. Compounds are tested at a single concentration, which is 10^-5 M for most compounds. The reported endpoint is percent growth (GI% or GIPRCNT), where numbers from 0 - 100% represent growth inhibition, and numbers from -100% - 0 represent cell death. For example, a value of 40 represents 60% growth inhibition. […]
This is part of a sample that, as a whole, favours compounds with a hit. Of some 83,000 tested, about 20% had one in any assay.
The label is rule met for growth below 70% and rule not met for growth equal to or exceeding 70%.

>>> assigned_label("Cc1ncsc1-c1ccc(CNC(=O)[C@@H]2C[C@@H](O)CN2C(=O)[C@@H](NC(=O)C2(F)CC2)C(C)(C)C)c(OCCOCCOCCOCCOc2nc(Nc3cc(S(C)(=O)=O)ccc3N[C@@H](c3cccc4c3OC(F)(F)O4)c3ncccc3Cl)nc(N3CCNCC3)n2)c1")
"rule met"
>>> assigned_label("O=[N+]([O-])c1ccc(/C=C/c2nc3ccccc3n3c(=S)[nH]nc23)cc1")
"rule not met"
>>> assigned_label("COc1cc(C2CC(c3ccc(S(=O)(=O)NCCNc4nc(Nc5ccc(F)cc5)nc(N(C)C)n4)cc3)=Nc3c(N)nc(N)nc3N2)cc(OC)c1OC (configuration not stated)")
"rule not met"
>>> assigned_label("O=C(O)c1cccc(-c2ccc(/C=N/NC(=O)c3[nH]c4ccc(Br)cc4c3-c3ccccc3)o2)c1")
"rule met"
>>> assigned_label("C(=C\\c1cc(/C=C/c2ccccc2)c2ccccc2n1)/c1ccccc1")
"rule not met"
>>> assigned_label("Cc1cc(C)cc(C(=O)Nc2cccc(-c3cn(-c4ccc(S(N)(=O)=O)cc4)nn3)c2)c1")
"rule met"
>>> assigned_label("C=C1CCC2C3(C)COC(c4cccc(F)c4)OC3CCC2(C)C1C/C=C1/C(=O)OCC1O (configuration not stated)")
"rule met"
>>> assigned_label("CC(C)C(C(=O)O)n1c(O)c(/C=C2/C=c3cc4c(cc3=NC2=O)OCO4)sc1=S (configuration not stated)")
"rule not met"
>>> assigned_label("Cc1ccc(-c2nc(C#N)c(S(=O)(=O)N3CCN(S(=O)(=O)c4ccc(Cl)cc4)CC3)o2)cc1")
"rule not met"
>>> assigned_label("Cc1ccc(NC(=O)[C@]23CCC(C)(C)CC2C2=CCC4[C@@]5(C)C[C@@H](O)[C@H](O)[C@@](C)(CO)C5CC[C@@]4(C)[C@]2(C)CC3)cc1 (some centres not stated)")
"rule not met"
>>> assigned_label("O=C(N=Nc1c(O)[nH]c2ccc([N+](=O)[O-])cc12)c1ccc2nc(-c3ccccc3)[nH]c2c1")
"rule not met"
>>> assigned_label("Clc1ccc(-c2ccc(OCCCN3CCN(c4ccncc4)CC3)cc2)cc1")
"rule not met"
>>> assigned_label("COc1ccc(/C=N/NC(=O)Cn2nc(Cc3ccc(OC)cc3)c3onc(C)c3c2=O)cc1")
"rule met"
>>> assigned_label("Cc1cc2c(cc1Cl)C(=O)/C(=C/c1ccc(F)cc1)O2")
"rule not met"

###

test system: HT29 colon; experiment: NCI-60 one-dose screen, 48 h; settings: 10 µM unless noted
Compounds without any hit were thinned out: in the full panel of roughly 83,000, 20% have a hit. Calls of active or inactive are those of the source. Rule for the calls: active = growth percent below 10; inactive = the rest.
Classes used: active, inactive

>>> assigned_label("O=c1[nH]c2ccccc2cc1CSc1cccc(Nc2nccc(-c3ccc4ccccc4c3)n2)c1")
"inactive"
>>> assigned_label("C#CCOc1ccc(/C=N/Nc2nc(-c3ccc(F)cc3)cs2)cc1OC")
"inactive"
>>> assigned_label("Nc1nc(-c2ccccc2)c(N=Nc2ccc([N+](=O)[O-])cc2Cl)s1")
"inactive"
>>> assigned_label("COc1ccc(NC(=O)Cn2c(/C=C/c3cccc([N+](=O)[O-])c3)nc3ccccc3c2=O)cc1")
"inactive"
>>> assigned_label("O=C(NNc1nc2cc(C(F)(F)F)ccc2n2cccc12)c1cnccn1")
"active"
>>> assigned_label("C[C@H]1CN(C(=O)c2ccc3c(NNC(=O)c4ccncn4)nc4cc(F)c(F)cc4n23)CCN1")
"inactive"
>>> assigned_label("COc1ccc(NC(=O)[C@H](C)N)cc1C(=O)Nc1cccc(C2CC(=O)c3c(cc(OC)c(OC)c3OC)O2)c1 (some centres undefined)")
"inactive"
>>> assigned_label("Cc1cccc(NC(=O)CN2CCN(c3ncnc4c3cnn4-c3ccccc3)CC2)c1")
"inactive"
>>> assigned_label("CN1C(=O)/C(=C/c2ccc(C(=O)Nc3ncc(Cc4ccc(Cl)cc4Cl)s3)cc2)SC1=S")
"inactive"
